Target: pooled human IgG
result type: Enzyme Activity Endpoint Assay (purified): IgG (ng/µL)

protein: PRT-153 (protein) MANQEIRYSEVTPYHVTSVWTKGVTPPANFTQGEDVFHAPYVANQGWYDITKTFNGKDDLLCGAATAGNMLHWWFDQNKTQIERYLKKHPEKQKINFNGEQMFDVKEAIDTKNHQLDSKLFEYFKEKAFPYLSTKHLGVFPDHVIDMFINGYRLSLTNHGPTPVKEGSKDPRGGIFDAVFTRGDQSKLLTSRHDFKEKNLKEISDLIKKELTEGKALGLSHTYANVRINHVINLWGADFDSNGNLKAIYVTDSDSNASIGMKKYFVGVNSAGKVAISAKEIKEDNIGAQVLGLFTLSTGKDSWKKTN
readout value: 0
